Read-out: Matrix Metallopeptidase 1 (MMP1), MMP1 (gene 4312)
Experiment: BSK_hDFCGF_MMP1: BioMAP Diversity Plus: hDFCGF Assay for Matrix Metallopeptidase 1 (MMP1) Biomarker Activity (AID 2283064)
Measurement Setup: primary human foreskin fibroblasts; actives raise or lower the signal
Calls of active or inactive are those of the source. How the source made its calls: active means hit-call score of the fitted dose curve at least 0.9, where 1 is the maximum; inactive means score below 0.9.
Lab note: assign the record to one of active, inactive

Worked set:
{"Compound Structure String": "CCCCCCCCOc1ccc(C(=O)c2ccccc2)c(O)c1", "Assigned Category": "inactive"}
{"Compound Structure String": "COc1cc(C(=O)NC2CCN(C)CC2)ccc1Nc1ncc2c(n1)N(C1CCCC1)CC(F)(F)C(=O)N2C", "Assigned Category": "active"}
{"Compound Structure String": "COc1ccc2cc(S(=O)(=O)N[C@H](CC(=O)N[C@H](Cc3ccc(CN4[C@H](C)CCC[C@@H]4C)cc3)C(=O)N(C)C(C)C)c3ccc4c(c3)OCO4)ccc2c1", "Assigned Category": "active"}
{"Compound Structure String": "CC[C@@H]1C[C@H](N(Cc2cc(C(F)(F)F)cc(C(F)(F)F)c2)C(C)=O)c2cc(C(F)(F)F)ccc2N1C(=O)OC(C)C", "Assigned Category": "inactive"}
{"Compound Structure String": "O=C(Nc1ccc(Cl)cc1)Nc1ccc(Cl)c(Cl)c1", "Assigned Category": "active"}

For this compound, state the assay outcome: `CCCCOC(=O)CC(CC(=O)OCCCC)(OC(C)=O)C(=O)OCCCC`
inactive

For this compound, state the assay outcome: `Cc1ccc(C(C)C)cc1`
inactive

###

Measurement Target: human CYP2D6, CYP2D6 (gene 1565)
Experiment: NVS_ADME_hCYP2D6: NovaScreen (NVS) CYP450-related Enzyme Activity (ADME) Assay for human CYP2D6 (AID 2283107)
Calls of active or inactive are those of the source. The calls were made as follows: active = hit-call score of the fitted dose curve at least 0.9, where 1 is the maximum; inconclusive = response in the unintended direction; inactive = score below 0.9.
Form field: AC50 (one value per entry).

A selection of reference data follows.
{"Compound Structure String": "COc1cccc([C@H](O)C2CCN(CCc3ccc(F)cc3)CC2)c1OC", "Measurement Target": "human CYP2D6, CYP2D6 (gene 1565)", "AC50": "5.29 µM (active)"}
{"Compound Structure String": "CCN(CC)C(=O)c1cc(S(=O)(=O)Cc2ccccc2)c(N2CCC(c3ccccc3)CC2)cc1N(CC)CCN(C)C", "Measurement Target": "human CYP2D6, CYP2D6 (gene 1565)", "AC50": "5.11 µM (active)"}

// below: AC50 requested for another molecule
What value of AC50 has been reported for the following molecule? `c1ccc(C[n+]2cccc3ccccc32)cc1`
7.84 µM (active)

###

Read-out: Monokine induced gamma interferon (MIG), CXCL9 (gene 4283)
Experiment: BSK_CASM3C_MIG: BioMAP Diversity Plus: CASM3C Assay for Monokine induced gamma interferon (MIG) Biomarker Activity (AID 2283048);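 further: MIG protein level measured by ELISA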
Measurement Setup: primary human coronary artery smooth muscle cells; actives raise or lower the signal
Activity calls are given as the source filed them. The calls were made as follows: active = hit-call score of the fitted dose curve at least 0.9, where 1 is the maximum; inactive = score below 0.9.

{"Compound Structure String": "O=C(O)Cn1c(=O)n(Cc2ccc(Br)cc2F)c(=O)c2ccc(Cl)cc21", "outcome": "inactive"}
{"Compound Structure String": "Oc1ccc2ccccc2c1", "outcome": "inactive"}
{"Compound Structure String": "c1ccc(C[n+]2cccc3ccccc32)cc1", "outcome": "inactive"}

###

Experiment: Tanguay_ZF_120hpf_SWIM_legacy: (Legacy) Oregon State University Tanguay Lab 120 Hour Post-fertilization zebrafish Assay for Swim Bladder Malformation (AID 2283654);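 further: swim bladder malformation in each larva scored yes or no under brightfield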
Description: Tanguay_ZF_120hpf_legacy is a whole embryo, multiplexed endpoint assay using zebrafish larvae exposed for 120 hours post fertilization on a 96-well plate.Tanguay_ZF_120hpf_SWIM_legacy is one of one assay component(s) measured or calculated from the Tanguay_ZF_120hpf_legacy assay. […] This assay endpoint, Tanguay_ZF_120hpf_SWIM_legacy, was analyzed in the positive analysis fitting direction relative to DMSO as the negative control and baseline of activity. […]
Records with an inconclusive call do not appear. The source made the active and inactive calls. The calls were made as follows: active = hit-call score of the fitted dose curve at least 0.9, where 1 is the maximum; inconclusive = response in the unintended direction; inactive = score below 0.9.
Lab note: assign the record to one of active, inactive

For this compound, state the assay outcome: `OCCO`
inactive

For this compound, state the assay outcome: `Oc1ccc2ccccc2c1`
inactive

For this compound, state the assay outcome: CN1C(=O)N(c2ccccc2Br)Cc2cnc(Nc3ccc4c(c3)OCC(CO)O4)nc21 (stereo not drawn)
inactive
